These entries and their values trace back to the nanobody polyreactivity screen of Harvey et al. (2022).

PROTOCOL_TEXT: yeast display, Sf9 membrane polyspecificity reagent, FACS + sequencing; frameworks hold sequencing errors
QUANTITY: polyreactivity (PSR sort gate)

SEQ_STRING	MEAS_VALUE
QVQLVESGGGLVQAGGSLRLSCAASGRIFIVNAMGWYRQAPGKERELVAAISYRGGSTYYADSVKGRFTISRDNAKNTVYLQMNSLKPEDTAVYYCNKDSTGDGYDYWGQGTQVTVSS	low polyreactivity
QVQLVESGGGLVQAGGSLRLSCAASGFTFWYNDMGWYRQAPGKEREFVAAITTSGGNTYYADSVKGRFTISRDNAKNTVYLQMNSLKPEDTAVYYCAAEEGSSDATGYDYWGQGTQVTVSS	low polyreactivity
QVQLVESGGGLVQAGGSLRFSCAASRRTFANNAMGWYRQAPGKERELVAAISSGGNTYYADSVKGRFTISRDNAKNTVYLQMNSLKPEDTAVYYCAARYWIYRSEYDYWGQGTQVTVSS	high polyreactivity
QVQLVESGGGLVQAGGSLRLSCAASGRIFVIYGMGWYRQAPGKERELVAAIRWTGGSTYYADSVKGRFTISRDNAQNTVYLQMNSLQPEDTAVYYCNAGSDRAIWPTHDYWGQGTQVTVSS	low polyreactivity
QDQLVESGGALVQAGGSLRLSCAASGFTYYGNAMGWYRQAPGKERELVAAISSSGGITYYADSVKGRFTISRDNAKNTVYLQMNSLKPEDTAVYYCAAVQGTPDYEYDSWGQGTQVTVSS	low polyreactivity
QVQLVESGGGLVQAGGSLRLSCAASGSIFPSNTMGWYRQAPGKERELVATIRWNTGSTYYADSVKGRFTISRDNAKNTVYLQMNSLKPEDTAVYYCAALYVWLWGYRFDYWGQGTQVTVSS	high polyreactivity
QVQLVESGGRLVQAGGSLRLICAASGRIFKQYAMGWYRQSPGKERELVARITGSGSRTYYADSVKGRFTISRDNAKITVYIQMKSLKPEDTAVYYCAKDRYYGKRGGAWYDYWGQGTQVTVSS	low polyreactivity
QVQLVESGGGLVQAGGSLRLSCAASGFIFRRYVMGWYRQAPGKERELVAAISNGGGRTYYADSVKGRFTISRDNAKNTVYLQMNSLKPEDTAVYYCAAYPRGPLAPDYDYWGQGTQVTVSS	high polyreactivity
QVHLVESGAGLVQAGGSLRLSCAASGRVFYYYAMGWYRQAPGKEREFVATISWSGVRTYYADSVKGRFTISRDNAKNTVYLQMNSLKPEDTAVYYCNADYYSPKFPSGMNYWGQGTQVTVSS	high polyreactivity
QVQLVESGGGLVQAGGSLRLSCAASGRIFLGNAMGWYRQAPWKESELVAAITNGGGSTSYADSVKGRFTISRDNAKNTVYLQMNSLKPEDTAVYYCARGYKKSVQRFEYRGQGTQVTVSS	high polyreactivity
QVQLQESAGGLVQAGGSLSLSCAASGSISRYYDMGWYRQAPGKEREFVAGISGGASTYYADSVKGRFTISRDNAKNTVYLQMNSLKPEDTAVYYCAADTGVYQYHSYWGQGTQVTVSS	low polyreactivity
